Source listed as paper PMC11995216.

system: PAMPA; settings: Acceptor Concentration (uM) / [row 1]; UV detection; initial concentration 500 uM
Starred links: 1 amine or outer side, 2 acyl side, 3 side chain; linkers in the order of their positions; H or OH if unused. Non-standard residues stand in square brackets, D forms with d. Residues, ends and D or L forms follow the SMILES beside them. *: point of attachment. X2 = CCCCC[C@H](O*)C(=O)OCc1ccccc1; X1 = CCCCC[C@H](O[*:1])C(=O)[*:2]; Ahp(2) = CCCCC[C@H](N)C(=O)O; dNMeA = CN[C@H](C)C(=O)O; Boc = CC(C)(C)OC(=O)*; OBn = c1ccc(CO*)cc1
Sorting guide: entries reporting Acceptor Concentration beneath 70 µM go in the Met pile, the rest go in the Not met pile.

{"COMPOUND": "CCCCC[C@H](NC(=O)[C@@H](C)N(C)C(=O)[C@H](CCCCC)OC(=O)[C@@H](C)N(C)C(=O)[C@H](CCCCC)NC(=O)[C@@H](C)N(C)C(=O)[C@H](CCCCC)OC(=O)[C@@H](C)N(C)C(=O)OC(C)(C)C)C(=O)OCc1ccccc1 [Compound L2.3] (Boc-[dNMeA][X1][dNMeA][Ahp(2)][dNMeA][X1][dNMeA][Ahp(2)]-OBn)", "TARGET UNDER TEST": "PAMPA", "GROUP LABEL": "Not met"}
{"COMPOUND": "CCCCC[C@H](NC(=O)[C@@H](C)N(C)C(=O)[C@H](CCCCC)NC(=O)[C@@H](C)N(C)C(=O)[C@H](CCCCC)NC(=O)[C@@H](C)N(C)C(=O)[C@H](CCCCC)NC(=O)[C@@H](C)N(C)C(=O)OC(C)(C)C)C(=O)OCc1ccccc1 [Compound L2.5] (Boc-[dNMeA][Ahp(2)][dNMeA][Ahp(2)][dNMeA][Ahp(2)][dNMeA][Ahp(2)]-OBn)", "TARGET UNDER TEST": "PAMPA", "GROUP LABEL": "Met"}

query: Strictly below 70 µM in Acceptor Concentration? CCCCC[C@H](OC(=O)[C@@H](C)N(C)C(=O)[C@H](CCCCC)OC(=O)[C@@H](C)N(C)C(=O)[C@H](CCCCC)OC(=O)[C@@H](C)N(C)C(=O)[C@H](CCCCC)OC(=O)[C@@H](C)N(C)C(=O)OC(C)(C)C)C(=O)OCc1ccccc1
result: Met

query: Request: CCCCC[C@H](NC(=O)[C@@H](C)N(C)C(=O)OC(C)(C)C)C(=O)N(C)[C@H](C)C(=O)O[C@@H](CCCCC)C(=O)N(C)[C@H](C)C(=O)O[C@@H](CCCCC)C(=O)N(C)[C@H](C)C(=O)O[C@@H](CCCCC)C(=O)OCc1ccccc1 [Compound L2.1] (Boc-[dNMeA][Ahp(2)][dNMeA][X1][dNMeA][X1][dNMeA]-X2)
result: Not met

----------
settings: PAMPA, 500 uM
VALUE TYPE: Δ % diffusion

{"COMPOUND": "CCCCC[C@H](OC(=O)[C@@H](C)N(C)C(=O)[C@H](CCCCC)OC(=O)[C@@H](C)N(C)C(=O)[C@H](CCCCC)OC(=O)[C@@H](C)N(C)C(=O)[C@H](CCCCC)OC(=O)[C@@H](C)N(C)C(=O)OC(C)(C)C)C(=O)OCc1ccccc1 [Compound L1.4]", "READOUT VALUE": "↑14%"}
{"COMPOUND": "CCCCC[C@H](NC(=O)[C@@H](C)N(C)C(=O)OC(C)(C)C)C(=O)N(C)[C@H](C)C(=O)N[C@H](CCCCC)C(=O)N(C)[C@H](C)C(=O)O[C@@H](CCCCC)C(=O)N(C)[C@H](C)C(=O)O[C@@H](CCCCC)C(=O)OCc1ccccc1 (stereo in doubt) [Compound L2.2]", "READOUT VALUE": "↑17%"}
